# test_system: T1, human MSLN on OVCAR3 tumor cells (human, UniProt Q13421 296-598)
# T1 construct: whole, on cells; also called human MSLN protein
# T1 sequence (Q13421 other isoform, or with tags, fused parts or gaps): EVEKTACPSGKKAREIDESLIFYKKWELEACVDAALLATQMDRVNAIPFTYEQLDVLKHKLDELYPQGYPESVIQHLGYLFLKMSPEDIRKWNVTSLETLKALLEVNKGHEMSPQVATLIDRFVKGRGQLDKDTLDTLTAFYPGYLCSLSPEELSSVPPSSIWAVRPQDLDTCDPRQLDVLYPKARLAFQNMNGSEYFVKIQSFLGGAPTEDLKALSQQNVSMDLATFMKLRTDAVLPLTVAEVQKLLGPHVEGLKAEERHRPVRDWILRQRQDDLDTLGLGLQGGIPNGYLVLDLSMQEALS
# procedure_summary: FACS, OVCAR3 cells
Here the recorded Maximum_MFI is given for each entry.
Record the value in MFI, omitting the unit from your answer.

These solved cases illustrate the format of a correct answer.
[
  {
    "binder": "F7.44.20-H10 (scFv, not shown: small tags and cut ends, also called S009-F7.44.20 humanized antibody VH2 + VL2) scFv: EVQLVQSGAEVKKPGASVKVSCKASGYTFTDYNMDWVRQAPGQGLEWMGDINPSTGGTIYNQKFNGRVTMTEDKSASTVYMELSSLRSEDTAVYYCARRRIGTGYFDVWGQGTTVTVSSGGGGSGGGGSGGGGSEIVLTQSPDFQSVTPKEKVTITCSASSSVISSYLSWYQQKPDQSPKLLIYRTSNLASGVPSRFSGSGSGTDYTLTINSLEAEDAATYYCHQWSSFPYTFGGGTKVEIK",
    "Maximum_MFI, MFI": 2320
  },
  {
    "binder": "F7.44.20-H16 (scFv, not shown: small tags and cut ends, also called S009-F7.44.20 humanized antibody VH2a + VL4) scFv: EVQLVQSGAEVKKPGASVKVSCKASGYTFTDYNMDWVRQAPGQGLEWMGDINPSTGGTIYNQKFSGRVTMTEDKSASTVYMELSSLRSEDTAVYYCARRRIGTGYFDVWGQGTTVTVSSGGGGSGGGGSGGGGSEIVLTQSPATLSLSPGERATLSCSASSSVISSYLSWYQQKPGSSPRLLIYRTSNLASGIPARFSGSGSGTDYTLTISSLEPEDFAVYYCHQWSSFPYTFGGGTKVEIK",
    "Maximum_MFI, MFI": 1650
  }
]

Next item in the queue.
Look up Maximum_MFI for this binder: F7.44.20-H14 (scFv, not shown: small tags and cut ends, also called S009-F7.44.20 humanized antibody VH2a + VL2) scFv: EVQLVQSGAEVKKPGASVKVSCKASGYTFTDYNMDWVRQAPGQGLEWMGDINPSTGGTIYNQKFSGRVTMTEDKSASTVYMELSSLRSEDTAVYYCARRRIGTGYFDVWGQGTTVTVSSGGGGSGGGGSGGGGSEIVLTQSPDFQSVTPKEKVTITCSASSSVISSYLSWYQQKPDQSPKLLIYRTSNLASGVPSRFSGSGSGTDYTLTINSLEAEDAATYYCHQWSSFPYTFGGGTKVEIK
2140
